Tested on: IGROV-1
Assay: Antiproliferative activity against human IGROV1 cells harboring non targeted control shRNA sequence after 96 hrs by Cell-Titer Blue assay
Assay type: functional, cell-based
Conditions: IGROV-1, 96 h

structure_string	target_desc	IC50
Nc1nc2[nH]c(CCCc3ccc(C(=O)N[C@@H](CCC(=O)O)C(=O)O)s3)cc2c(=O)[nH]1	IGROV-1	10.1 nM
Nc1nc2[nH]c(CCCc3csc(C(=O)N[C@@H](CCC(=O)O)C(=O)O)c3F)cc2c(=O)[nH]1	IGROV-1	5.61 nM
Nc1nc2[nH]c(CCCc3ccc(C(=O)N[C@@H](CCC(=O)O)C(=O)O)c(F)c3)cc2c(=O)[nH]1	IGROV-1	1.14 nM
Nc1nc2[nH]cc(CCc3ccc(C(=O)N[C@@H](CCC(=O)O)C(=O)O)cc3)c2c(=O)[nH]1	IGROV-1	71 nM
Nc1nc2[nH]c(CCCc3csc(C(=O)N[C@@H](CCC(=O)O)C(=O)O)c3)cc2c(=O)[nH]1	IGROV-1	12.8 nM
Nc1nc2[nH]c(CCCCc3csc(C(=O)N[C@@H](CCC(=O)O)C(=O)O)c3F)cc2c(=O)[nH]1	IGROV-1	1.79 nM
Nc1nc2[nH]c(CCCCc3ccc(C(=O)N[C@@H](CCC(=O)O)C(=O)O)nc3)cc2c(=O)[nH]1	IGROV-1	1.55 nM
Nc1nc2[nH]c(CCCCc3csc(C(=O)N[C@@H](CCC(=O)O)C(=O)O)c3)cc2c(=O)[nH]1	IGROV-1	40.7 nM

====

We begin with a simple list: items and their reported pIC50.
Tested on: A2780
Test: Antiproliferative activity against human A2780 cells after 96 hrs by Cell-Titer Blue assay
Format: functional, cell-based
Conditions: A2780, 96 h
pIC50: −log10 of the molar value.

compound	pIC50
Nc1nc2[nH]c(CCCc3csc(C(=O)N[C@@H](CCC(=O)O)C(=O)O)c3F)cc2c(=O)[nH]1	8.12
Nc1nc2[nH]c(CCCCc3ccc(C(=O)N[C@@H](CCC(=O)O)C(=O)O)nc3)cc2c(=O)[nH]1	8.27
Nc1nc2[nH]c(CCCCc3ccc(C(=O)N[C@@H](CCC(=O)O)C(=O)O)cc3)cc2c(=O)[nH]1	7.85
Nc1nc2[nH]c(CCCCc3csc(C(=O)N[C@@H](CCC(=O)O)C(=O)O)c3)cc2c(=O)[nH]1	7.54
Nc1nc2[nH]c(CCCc3ccc(C(=O)N[C@@H](CCC(=O)O)C(=O)O)c(F)c3)cc2c(=O)[nH]1	8.67
Nc1nc2[nH]c(CCCc3csc(C(=O)N[C@@H](CCC(=O)O)C(=O)O)c3)cc2c(=O)[nH]1	7.66
Nc1nc2[nH]c(CCCc3ccc(C(=O)N[C@@H](CCC(=O)O)C(=O)O)s3)cc2c(=O)[nH]1	7.56
Nc1nc2[nH]cc(CCc3ccc(C(=O)N[C@@H](CCC(=O)O)C(=O)O)cc3)c2c(=O)[nH]1 [PEMETREXED]	7.40
Nc1nc2[nH]c(CCCc3ccc(C(=O)N[C@@H](CCC(=O)O)C(=O)O)cc3)cc2c(=O)[nH]1	8.57
Nc1nc2[nH]c(CCCCc3csc(C(=O)N[C@@H](CCC(=O)O)C(=O)O)c3F)cc2c(=O)[nH]1	8.51

====

Molecular target: Trifunctional purine biosynthetic protein adenosine-3 (Homo sapiens, UniProt P22102)
Sequence (P22102 whole entry): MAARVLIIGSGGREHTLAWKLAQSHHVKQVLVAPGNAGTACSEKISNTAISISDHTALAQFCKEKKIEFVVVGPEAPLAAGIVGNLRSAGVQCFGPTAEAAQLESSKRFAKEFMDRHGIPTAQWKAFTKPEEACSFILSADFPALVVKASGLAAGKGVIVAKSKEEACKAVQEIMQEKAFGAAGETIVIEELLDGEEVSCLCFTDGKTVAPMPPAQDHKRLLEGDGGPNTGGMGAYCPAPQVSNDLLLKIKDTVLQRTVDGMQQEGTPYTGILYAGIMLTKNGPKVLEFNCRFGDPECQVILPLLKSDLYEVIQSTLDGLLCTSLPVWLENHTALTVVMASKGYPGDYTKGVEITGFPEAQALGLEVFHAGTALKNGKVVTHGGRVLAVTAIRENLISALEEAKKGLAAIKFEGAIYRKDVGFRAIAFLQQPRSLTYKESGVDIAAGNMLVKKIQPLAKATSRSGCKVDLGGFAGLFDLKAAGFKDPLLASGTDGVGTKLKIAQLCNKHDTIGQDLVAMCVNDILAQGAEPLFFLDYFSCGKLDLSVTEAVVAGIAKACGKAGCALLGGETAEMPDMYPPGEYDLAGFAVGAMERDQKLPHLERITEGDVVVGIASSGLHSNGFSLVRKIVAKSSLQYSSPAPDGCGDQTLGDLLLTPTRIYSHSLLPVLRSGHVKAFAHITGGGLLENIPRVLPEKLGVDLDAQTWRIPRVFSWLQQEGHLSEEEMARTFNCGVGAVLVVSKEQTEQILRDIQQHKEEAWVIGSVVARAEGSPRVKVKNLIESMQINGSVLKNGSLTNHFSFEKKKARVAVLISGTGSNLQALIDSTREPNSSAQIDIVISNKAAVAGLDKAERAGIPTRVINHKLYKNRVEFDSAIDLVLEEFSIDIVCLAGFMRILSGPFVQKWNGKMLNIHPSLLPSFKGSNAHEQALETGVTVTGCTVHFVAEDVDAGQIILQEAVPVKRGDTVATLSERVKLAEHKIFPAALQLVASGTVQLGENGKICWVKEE
Assay: Inhibition of GARFTase in human IGROV1 cells assessed as decrease in incorporation of [14C(U)glycine into [14C]formyl GAR formation after 24 hrs
observable: IC50 (nM)

structure_string	observable	unit_abbrev	obs_value
Nc1nc2[nH]c(CCCc3csc(C(=O)N[C@@H](CCC(=O)O)C(=O)O)c3F)cc2c(=O)[nH]1	IC50	nM	1.2
Nc1nc2[nH]c(CCCc3csc(C(=O)N[C@@H](CCC(=O)O)C(=O)O)c3)cc2c(=O)[nH]1	IC50	nM	1
Nc1nc2[nH]c(CCCCc3cnc(C(=O)N[C@@H](CCC(=O)O)C(=O)O)c(F)c3)cc2c(=O)[nH]1	IC50	nM	2

====

Experiment: Binding affinity to human PCFT expressed in Chinese hamster R2/PCFT4 cells assessed as antiproliferative activity measured as reduction in cell growth after 96 hrs by Cell-Titer Blue assay
pIC50: −log10 of the molar value.

structure_string	pIC50
Nc1nc2[nH]c(CCCc3csc(C(=O)N[C@@H](CCC(=O)O)C(=O)O)c3)cc2c(=O)[nH]1	8.27

====

Target: Proton-coupled folate transporter (Homo sapiens)
Experiment: Inhibition of human PCFT expressed in Chinese hamster R2/PCFT4 cells assessed as reduction in [3H]MTX uptake at pH 5.5 at 10 uM measured over 2 mins relative to control
Type: cell-based
Activity calls are given as the source filed them. The calls are words filed in the database; no cut-off is given here.

structure_string	inhibition
Nc1nc2[nH]c(CCCCc3csc(C(=O)N[C@@H](CCC(=O)O)C(=O)O)c3)cc2c(=O)[nH]1	Active
Nc1nc2[nH]c(CCCCc3ccc(C(=O)N[C@@H](CCC(=O)O)C(=O)O)c(F)c3)cc2c(=O)[nH]1	90 to 95%
Nc1nc2[nH]c(CCCCc3csc(C(=O)N[C@@H](CCC(=O)O)C(=O)O)c3F)cc2c(=O)[nH]1	90 to 95%
Nc1nc2[nH]c(CCCc3csc(C(=O)N[C@@H](CCC(=O)O)C(=O)O)c3)cc2c(=O)[nH]1	Active

====

We begin with a simple list: items and their reported pIC50.
Tested on: IGROV-1
Assay: Antiproliferative activity against FRalpha […] human IGROV1 KD10 cells after 96 hrs by Cell-Titer Blue assay
Type: functional, cell-based
Conditions: IGROV-1, 96 h
pIC50: −log10 of the molar value.

structure_string	reading_qualifier	pIC50
Nc1nc2[nH]c(CCCc3csc(C(=O)N[C@@H](CCC(=O)O)C(=O)O)c3)cc2c(=O)[nH]1	=	7.52
Nc1nc2[nH]c(CCCc3ccc(C(=O)N[C@@H](CCC(=O)O)C(=O)O)s3)cc2c(=O)[nH]1	=	7.13
Nc1nc2[nH]c(CCCCc3ccc(C(=O)N[C@@H](CCC(=O)O)C(=O)O)nc3)cc2c(=O)[nH]1	=	7.52
Nc1nc2[nH]c(CCCCc3csc(C(=O)N[C@@H](CCC(=O)O)C(=O)O)c3)cc2c(=O)[nH]1	<	6.00
Nc1nc2[nH]c(CCCc3ccc(C(=O)N[C@@H](CCC(=O)O)C(=O)O)c(F)c3)cc2c(=O)[nH]1	=	7.72
